# TARGET_SYSTEM: UniProt O00763
# Sequence (O00763 129-2458): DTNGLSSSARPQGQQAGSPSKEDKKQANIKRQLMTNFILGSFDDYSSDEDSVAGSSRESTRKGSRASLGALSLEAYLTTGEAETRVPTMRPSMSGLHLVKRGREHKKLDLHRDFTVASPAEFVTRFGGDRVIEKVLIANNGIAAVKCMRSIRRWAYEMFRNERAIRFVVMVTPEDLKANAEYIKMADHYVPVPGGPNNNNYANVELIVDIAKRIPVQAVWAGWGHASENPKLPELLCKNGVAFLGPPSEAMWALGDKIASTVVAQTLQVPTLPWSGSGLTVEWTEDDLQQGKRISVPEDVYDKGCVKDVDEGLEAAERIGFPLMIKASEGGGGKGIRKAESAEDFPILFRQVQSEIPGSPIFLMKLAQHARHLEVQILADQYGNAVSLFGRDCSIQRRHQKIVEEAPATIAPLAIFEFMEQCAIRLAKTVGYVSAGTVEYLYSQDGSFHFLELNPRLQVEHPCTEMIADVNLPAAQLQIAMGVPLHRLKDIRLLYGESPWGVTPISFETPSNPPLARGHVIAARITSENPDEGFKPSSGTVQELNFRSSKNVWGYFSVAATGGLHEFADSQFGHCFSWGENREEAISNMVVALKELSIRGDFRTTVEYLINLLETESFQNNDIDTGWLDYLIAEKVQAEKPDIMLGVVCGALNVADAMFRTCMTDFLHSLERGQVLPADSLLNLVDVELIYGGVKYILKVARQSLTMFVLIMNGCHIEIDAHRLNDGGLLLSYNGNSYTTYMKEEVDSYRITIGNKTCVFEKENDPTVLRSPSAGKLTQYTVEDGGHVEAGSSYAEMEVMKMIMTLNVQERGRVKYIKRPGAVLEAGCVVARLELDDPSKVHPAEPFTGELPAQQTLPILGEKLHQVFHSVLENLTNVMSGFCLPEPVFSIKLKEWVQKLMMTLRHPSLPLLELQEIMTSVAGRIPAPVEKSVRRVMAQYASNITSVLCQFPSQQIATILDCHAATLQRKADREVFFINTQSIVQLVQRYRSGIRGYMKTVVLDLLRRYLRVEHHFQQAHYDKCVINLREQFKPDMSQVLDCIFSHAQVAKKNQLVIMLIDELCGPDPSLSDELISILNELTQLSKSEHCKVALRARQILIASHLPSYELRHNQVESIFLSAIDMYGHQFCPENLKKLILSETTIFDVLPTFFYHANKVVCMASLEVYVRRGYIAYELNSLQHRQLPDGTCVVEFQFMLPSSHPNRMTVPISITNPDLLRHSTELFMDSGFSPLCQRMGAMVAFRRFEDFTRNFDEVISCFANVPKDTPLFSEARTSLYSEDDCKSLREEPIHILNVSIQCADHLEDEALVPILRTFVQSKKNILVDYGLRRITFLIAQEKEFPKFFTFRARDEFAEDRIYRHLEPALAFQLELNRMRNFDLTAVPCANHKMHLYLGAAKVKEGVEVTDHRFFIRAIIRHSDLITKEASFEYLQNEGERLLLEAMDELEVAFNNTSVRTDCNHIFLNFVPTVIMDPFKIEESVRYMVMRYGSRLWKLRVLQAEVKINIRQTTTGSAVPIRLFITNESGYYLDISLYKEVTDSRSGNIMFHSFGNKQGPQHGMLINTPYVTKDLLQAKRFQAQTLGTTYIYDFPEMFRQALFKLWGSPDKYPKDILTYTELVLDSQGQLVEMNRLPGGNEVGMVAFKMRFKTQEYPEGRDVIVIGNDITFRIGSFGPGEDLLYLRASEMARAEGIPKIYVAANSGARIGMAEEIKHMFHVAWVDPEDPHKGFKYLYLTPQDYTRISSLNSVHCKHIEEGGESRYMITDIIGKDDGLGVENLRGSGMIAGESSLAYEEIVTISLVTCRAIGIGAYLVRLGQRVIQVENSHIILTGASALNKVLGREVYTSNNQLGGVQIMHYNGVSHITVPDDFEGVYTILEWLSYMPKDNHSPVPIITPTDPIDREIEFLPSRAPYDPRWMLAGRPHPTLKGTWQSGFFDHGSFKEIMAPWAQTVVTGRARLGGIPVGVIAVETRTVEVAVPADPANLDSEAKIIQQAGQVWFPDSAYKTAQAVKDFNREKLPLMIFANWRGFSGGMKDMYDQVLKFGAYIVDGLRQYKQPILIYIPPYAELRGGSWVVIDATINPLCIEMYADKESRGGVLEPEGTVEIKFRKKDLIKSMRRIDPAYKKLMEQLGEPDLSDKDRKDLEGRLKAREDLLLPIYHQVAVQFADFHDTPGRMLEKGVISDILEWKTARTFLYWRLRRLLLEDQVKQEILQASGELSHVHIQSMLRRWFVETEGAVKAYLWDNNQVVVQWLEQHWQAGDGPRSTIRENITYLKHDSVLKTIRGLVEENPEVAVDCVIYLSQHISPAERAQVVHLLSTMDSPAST
# PROCEDURE_TEXT: ACC2 assay (spectrophotometric 384 well assay, NADH-linked kinetic method)
# Assay type: biochemical
# CONDITION: hACC2 construct lacking 128 N-terminal amino acids; coupled lactate dehydrogenase/pyruvate kinase reaction, 340 nm, 25° C.
Param label: returns MET when IC50 < 200 nM, returns NOT MET otherwise, including exact equality.

Report whether reported IC50 is lower than 200 nM (strictly) for CC(=O)N[C@@H](C)c1ccc(O[C@@H]2CCN(c3nc(N4CCC(F)(F)C4)ncc3F)C2)cc1
MET

Report whether reported IC50 is lower than 200 nM (strictly) for COC[C@H]1CCCN1c1nccc(N2CC[C@@H](Oc3ccc([C@H](C)NC(C)=O)cc3)C2)n1
NOT MET

Report whether reported IC50 is lower than 200 nM (strictly) for CCN(C)c1nc(N2CC[C@@H](Oc3ccc([C@H](C)NC(C)=O)cc3)C2)ncc1F
NOT MET

Report whether reported IC50 is lower than 200 nM (strictly) for COCCCN(C)c1ncc(F)c(N2CC[C@@H](Oc3ccc([C@H](C)NC(C)=O)cc3)C2)n1
MET

Report whether reported IC50 is lower than 200 nM (strictly) for COC1CCN(c2ncc(F)c(N3CC[C@@H](Oc4ccc([C@H](C)NC(C)=O)cc4)C3)n2)CC1
NOT MET

Report whether reported IC50 is lower than 200 nM (strictly) for COC[C@H]1CCCN1c1ncnc(N2CC[C@@H](Oc3ccc([C@H](C)NC(C)=O)cc3)C2)c1F
NOT MET

Attention now turns to another entry.
Report whether reported IC50 is lower than 200 nM (strictly) for CC(=O)N[C@@H](C)c1ccc(O[C@@H]2CCN(c3ccnc(C(C)C)n3)C2)cc1
NOT MET

src = patent US8962641B2
